Parameter: Residual turnover. Scope: all listed entries.
system: HPPD polypeptides; test: coupled HPPD activity assay: turnover and residual turnover in crude extracts; format: biochemical, Pseudomonas fluorescens; conditions: presence of 100 μM Cmpd. 1; high substrate concentration; changes in absorbance (OD) at 320 nm
// print number alone

Exam item: Retrieve Residual turnover measured for 5 (protein, mutant HPPD polypeptide) MADLYENPMGLMGFEFIEFASPTPGTLEPIFEIMGFTKVATHRSKNVHLYRQGEINLILNNEPNSIASYFAAEHGPSVCGMAFRVKDSQKAYNRALELGAQPIHIDTGPMELNLPAIKGIGGAPLYLIDRFGEGSSIYDIDFVYLEGVERNPVGAGLKVIDHLTHNVYRGRMVYWANFYEKLFNFREARYFDIKGEYTGLTSKAMSAPDGMIRIPLNEESSKGAGQIEEFLMQFNGEGIQHVAFLTDDLVKTWDALKKIGMRFMTAPPDTYYEMLEGRLPDHGEPVDQLQARGILLDGSSVEGDKRLLLQIFSETLMGPVFFEFIQRKGDDGFGPDSFKVLFESIERDQVRRGVLTAD and print it.
Marked response: 0.059

Please find the next molecule below.
Exam item: Retrieve Residual turnover measured for 41 (protein, mutant HPPD polypeptide) MADLYENPMGLMGFEFIEFASPTPGTLEPIFEIMGFTKVATHRSKNVHLYRQGEINLILNNEPNSIASYFAAEHGPSVCGMAFRVKDSQKAYNRALELGAQPIHIDTGPMELNLPAIKGIGGAPLYLIDRFGEGSSIYDIDFVYLEGVERNPVGAGLKVIDHLTHNVYRGRMVYWANFYEKLFNFREARYFDIKGEYTGLTSKAMSAPDGMIRIPLNEESSKGAGQIEEFLMQFNGEGIQHVAFLTDDLVKTWDALKKIGMRFMTAPRDEYYEMLEGRLPDHGEPVDQLQARGILLDGSSVEGDKRLLLQIFSETLMGPVFFEFIQRKGDDGFGPHSFKVLFESVERDQVRRGVLTAD and print it.
Marked response: 0.105
